Exercise: for every item that follows, state its recorded GI50.
- Tested on: OVCAR-8
- Assay Procedure: NCI tumour cell line growth inhibition, 48 h
The source made the active and inactive calls. No stated cut-off is given here; in the data, active = GI50 up to about 1.1 µM and inactive = higher.

Please give the measured GI50 for this compound: `COc1cc2c(cc1OCCCC(=O)Nc1cc(C(=O)Nc3cc(C(=O)Nc4cc(C(=O)NCCCN(C)C)n(C)c4)n(C)c3)n(C)c1)N=C[C@@H]1CCCN1C2=O`
1.79 µM (inactive)

Likewise for CC(=O)OC12CC(C)C3(O)C4C=C(C)C(=O)[C@@]4(O)CC(CO)=C[C@H]3C1C2(C)C (stereo not given in full) ?
> 10 µM (inactive)

Likewise for NC(=O)c1cc(N2CC2)c([N+](=O)[O-])cc1[N+](=O)[O-] [TRETAZICAR] ?
> 100 µM (inactive)

Likewise for `Oc1cc(CF)nc(S)n1` ?
> 100 µM (inactive)

Likewise for CC1=CC(=O)CC(C)(C)C1(O)/C=C/C(C)=C/C(=O)O (stereo not given) ?
> 100 µM (inactive)

Likewise for `CC(=O)O[C@H]1CC[C@@]2(C)C(=CC[C@@H]3[C@@H]2CC[C@]2(C)C(=N/O)/C(=C\c4ccccc4)C[C@@H]32)C1` ?
9.71 µM (inactive)

Likewise for `O=C(/C=C\Nc1ccccc1O)C(F)(F)F` ?
90.4 µM (inactive)

Likewise for COc1ccc(COCC[C@H](C)OC2OC(CO)C(O)C(O)C2O)cc1 (stereo not given in full) ?
> 100 µM (inactive)

Likewise for `CC(C)[C@H](NC(=O)OCc1ccccc1)C(=O)N[C@H](/C=C/C(=O)OC(C)(C)C)CO` ?
> 100 µM (inactive)

Likewise for `O=C1NC(=S)N/C1=C\c1ccc(Cl)cc1` ?
> 100 µM (inactive)
